# System: phosphorylation level of intracellular protein kinase (ERK) in MOLM13 cells
# TEST: Phosphorylated protein kinase (p-ERK) cell experiment (AlphaLISA)
# Format: cell-based
# CONDITION CONTEXT: Homo sapiens, MOLM-13; p-ERK, MOLM13 cells, 2 hours of cell treatment, Tables 2.1 and 2.2; read-out: IC50
pIC50: −log10 of the molar value.
Each entry below carries its reported pIC50.

- COMPOUND: "N[C@@H]1COCC12CCN(c1ncc(Sc3cccc(Cl)c3Cl)c3ncnn13)CC2"
  pIC50: "5.00 to 6.00"
- COMPOUND: "N[C@@H]1CCCC12CCN(c1ncc(Sc3cccnc3C(F)(F)F)c3nncn13)CC2"
  pIC50: "5.00 to 6.00"
- COMPOUND: "CC1C[C@@H](N)C2(CCN(c3ncc(Sc4ccnc(Cl)c4Cl)c4nccn34)CC2)C1 (stereo partly drawn)"
  pIC50: "> 7.00"
- COMPOUND: "C=CC(=O)Nc1cccc(Sc2cnc(N3CCC4(CCC[C@H]4N)CC3)n3cnnc23)c1Cl"
  pIC50: "5.00 to 6.00"
- COMPOUND: "N[C@@H]1CCCC12CCN(c1ncc(Sc3ccnc(F)c3Cl)c3nccn13)CC2"
  pIC50: "6.00 to 7.00"
- COMPOUND: "N[C@@H]1COCC12CCN(c1ncc(Sc3ccnc(Cl)c3Cl)c3nccn13)CC2"
  pIC50: "6.00 to 7.00"
- COMPOUND: "N[C@@H]1CCCC12CCN(c1ncc(Sc3ccnnc3Cl)c3nccn13)CC2"
  pIC50: "6.00 to 7.00"
- COMPOUND: "N[C@@H]1CCCC12CCN(c1ncc(Sc3ccnc(Cl)c3Cl)c3nncn13)CC2"
  pIC50: "5.00 to 6.00"

Q: Please report the measured pIC50 for Cc1nc(N)cc(Sc2cnc(N3CCC4(CC3)CO[C@@H](C)[C@H]4N)n3ccnc23)c1Cl
Ans: > 7.00

Q: Please report the measured pIC50 for N[C@@H]1CCCC12CCN(c1ncc(Sc3cccc(Cl)c3Cl)c3nccn13)CC2
Ans: 6.00 to 7.00

Q: Please report the measured pIC50 for N[C@@H]1CCCC12CCN(c1ncc(Sc3ccncc3Cl)c3nccn13)CC2
Ans: 6.00 to 7.00
